# assay_target: T1, human galectin-10-His (recombinant human galectin-10 with TEV-cleavable N-terminal His-tag) (human)
# T1 construct: SEC-MALLS: dimer in solution; also called Gal10-His; humanGal10-His
# T1 chain: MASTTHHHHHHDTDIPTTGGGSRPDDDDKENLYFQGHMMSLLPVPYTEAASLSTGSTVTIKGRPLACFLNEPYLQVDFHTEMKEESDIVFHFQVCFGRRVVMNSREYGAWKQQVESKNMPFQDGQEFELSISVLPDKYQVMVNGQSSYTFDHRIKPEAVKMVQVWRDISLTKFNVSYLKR
# assay_details: SPR Biacore T3000, mouse IgG1 captured by anti-mouse Fc, galectin-10-His as analyte
endpoint_label: koff (s⁻¹)
The response must be a number in s⁻¹ with no trailing unit.

Worked cases, answers included:
6B06 mouse IgG1 (antibody, V domains shown, also called 6B06 mIgG1) VH: QVQRQESGPGLVKPSQTLSLTCTVSGGSITTNYYSWSWIRQPPGKGLEWIGYIAYSGSTSYSPSLKSRTSISRDTSNNQFSLQLSSVTPEDTAVYYCARSRSSPTTFGMDYWGKGTLVTVSS VL: SSALTQPSAVSVSLGQTARITCQGGNFGRYYVSWYTQKPGQAPVLVIYQDSERPTGIPERFSGSSSGDTATLTISGAQAEDEADYYCQSGTSSDNIVFGGGTHLTVL : 0.00306
6F06 mouse IgG1 (antibody, V domains shown, also called 6F06 mIgG1) VH: QVQLVESGGGLVQPGGSLRLSCAASEFTFSRYSMSWVRQAPGKGLEWVSTINSGGGSTSYVDSVKGRFTISRDNAKNTLYLQMNSLKPEDTAVYYCTKSQGGISFSTQYGMDYWGKGTLVTVSS VL: NFMLTQPSAVSVSLGQTARITCQGGNFGRYYANWYQQKPGQAPVLVIYKDSERPSGIPERFSGSSSGDTATLTISGAQAEDESDYYCQSGSVSDNAVFGGGTHLAVL : 0.00487

As a next step, examine the binder that follows.
// recorded koff for 1C09 mouse IgG1 (antibody, V domains shown, VH on mouse IgG1 heavy chain constant domains (CH1-CH2-CH3), VL on mouse lambda light chain constant domain; also called 1C09 mIgG1) VH: QVQLVESGPGLVKPSQTLSLTCTVSGGSITTNSYYWSWIRQPPGKGLEWMGAIAYSGSTYYSPSLKSRTSISRDTSKNQFTLHLSSVTPEDTAVYYCARRPNWYRALDAWGQGTLVTVSS VL: NFMLTQPSAVSVSLGQTARITCQGANLGRYYGIWYQQKPGQAPVQVIYGDSNRPSGIPERFSGSSSGGTATLTISGAQAEDEADYYCQSYESSTSPVFGGGTHLTVL : 0.00529

The measured values listed here are drawn from patent US20190367619A1.
